# Tested on: HACAT_SEN
# Experiment Description: Senescence assay, viability of senescent HACAT cells (CellTiter-Glo or XTT)
# Type: cell-based
# Particulars: Homo sapiens, compounds 24-72 hours, viability relative to untreated control, read-out: Absolute IC50 average HACAT_SEN IC50
pIC50: −log10 of the molar value.
Recorded Endpoint: pIC50

>>> recorded_result("CCOP(C)(=O)c1nc(N2CCc3cccc(C(=O)Nc4nc5ccccc5s4)c3C2)ccc1-c1cnn(CC23CC4CC(CC(C4)C2)C3)c1C (stereo not shown)")
"> 8.00"

====

# System: senescent A549 cells
# Experiment Description: Senescence assay, viability of senescent A549 cells (CellTiter-Glo or XTT)
# Assay type: cell-based
# Particulars: Homo sapiens; chemotherapy-induced senescent A549 cells; compounds 24-72 hours; viability relative to untreated control; read-out: Absolute IC50 average A549_SEN IC50
pIC50: −log10 of the molar value.
Recorded Endpoint: pIC50

>>> recorded_result("CCOP(C)(=O)c1nc(N2CCc3cccc(C(=O)Nc4nc5ccccc5s4)c3C2)ccc1-c1cnn(CC23CC4CC(CC(C4)C2)C3)c1C (stereo not shown) [Compound 1]")
"7.00 to 8.00"
>>> recorded_result("Cc1c(-c2ccc(N3CCc4cccc(C(=O)Nc5nc6ccccc6s5)c4C3)nc2P(C)(=O)O)cnn1CC12CC3CC(CC(C3)C1)C2 [Compound 2]")
"7.00 to 8.00"
>>> recorded_result("Cc1c(-c2ccc(N3CCc4cccc(C(=O)Nc5nc6ccccc6s5)c4C3)nc2P(C)(=O)OCc2ccc(O[C@@H]3O[C@@H](C)[C@@H](O)[C@@H](O)[C@@H]3O)cc2)cnn1CC12CC3CC(CC(C3)C1)C2 (stereo partly shown) [Compound 3]")
"7.00 to 8.00"
>>> recorded_result("Cc1cc(N(C)c2nc(P(C)(=O)O)c(CCCOc3ccc(C#CCN(C)C)cc3F)s2)nnc1Nc1nc2ccccc2s1 [Compound 4]")
"6.00 to 7.00"

Cited source: patent US20250171473A1
